B1: CPN1 (parent)
chain: RGVRRTASTPTPDDKLFQKLAKVY

Variants of: B1
Test: protein stability index of a GFP-peptide fusion (GPS, HEK-293T) (PSI 1-6); higher = more stable;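 also: lentivirally expressed fusions sorted by FACS into six bins by GFP to DsRed ratio, PSI derived from sequencing read proportions per bin multiplied by bin number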
Settings: c terminus: a fixed tail appended
Classification field: YES = protein stability index at or over 2; NO = protein stability index under 2.

[[record]]
seq_string = "RGVRRTASTPTPDDKAFQKLAKVY"
assigned_label = "YES"

[[record]]
seq_string = "RGVRRTASTPTPDDKLFQKLMKVY"
assigned_label = "NO"

[[record]]
seq_string = "RGVRRTASTPTPDDKLFQKLIKVY"
assigned_label = "NO"


Problem: Does protein stability index meet or surpass 2 for `RGVRRTASTPTPNDKLFQKLAKVY` ?
Result: NO

Problem: Do the same for `RGVRRTASTPTPDDKLFQHLAKVY` please
Result: YES

Problem: Do the same for `RGERRTASTPTPDDKLFQKLAKVY` please
Result: YES

Problem: Do the same for `RGVRRTASTPTPDDKLFYKLAKVY` please
Result: NO

Problem: Do the same for `RGVRRTTSTPTPDDKLFQKLAKVY` please
Result: YES

Problem: Do the same for `RGVRRTASTPTFDDKLFQKLAKVY` please
Result: YES

Problem: Do the same for `RGVRRNASTPTPDDKLFQKLAKVY` please
Result: NO

Problem: Do the same for `RGVRRTASTPTPDDKLFQKEAKVY` please
Result: YES
